# Assay protocol: Mouse pharmacokinetic test
# Assay type: in vivo, ICR mice
# Run parameters: plasma, po, 30 mg/kg, PO-30mpk, read-out: Tmax
Test readout: Tmax (h)
Numeric only. Scale: h

Just so you know, measured Tmax for COc1c(Cl)cc(C(C)(C)c2ccc(-c3ccc(OCc4ccnc(P(C)(C)=O)n4)cc3)cc2)cc1C#N [Compound 237] came out at 3

Just so you know, measured Tmax for CNS(=O)(=O)C1CN(c2nccc(COc3ccc(-c4ccc(C(C)(C)c5cc(Cl)c(OCCCl)c(C#N)c5)cc4)nc3)n2)C1 [Compound 258] came out at 3

Just so you know, measured Tmax for CC(C)(c1ccc(-c2ccc(OCc3ccnc(N=S(C)(C)=O)n3)cc2)cc1)c1cc(Cl)c(OCCCl)c(C#N)c1 [Compound 44] came out at 4.67

Just so you know, measured Tmax for CC(C)(c1ccc(-c2cnc(OCc3ccnc(N4CC5(CCS5(=N)=O)C4)n3)cn2)cc1)c1cc(Cl)c(OCCCl)c(C#N)c1 (single isomer, unassigned) [Compound 375A] came out at 3.3

Just so you know, measured Tmax for CC(C)(c1ccc(-c2ccc(OCc3ccnc(N4CC(S(C)(=O)=O)C4)n3)nc2)cc1)c1cc(Cl)c(OCCCl)c(C#N)c1 [Compound 207] came out at 3

Just so you know, measured Tmax for CC(C)(c1ccc(-c2cnc(OCc3ccnc(N4CC(S(C)(=O)=O)C4)n3)cn2)cc1)c1cc(Cl)c(OCCCl)c(C#N)c1 [Compound 262] came out at 2

----------
# Tgt: CYP2D6 (Homo sapiens)
# Construct: co-incubated with human liver microsomes; from tissue; host or cells: human liver microsomes
# Sequence (P10635 whole entry): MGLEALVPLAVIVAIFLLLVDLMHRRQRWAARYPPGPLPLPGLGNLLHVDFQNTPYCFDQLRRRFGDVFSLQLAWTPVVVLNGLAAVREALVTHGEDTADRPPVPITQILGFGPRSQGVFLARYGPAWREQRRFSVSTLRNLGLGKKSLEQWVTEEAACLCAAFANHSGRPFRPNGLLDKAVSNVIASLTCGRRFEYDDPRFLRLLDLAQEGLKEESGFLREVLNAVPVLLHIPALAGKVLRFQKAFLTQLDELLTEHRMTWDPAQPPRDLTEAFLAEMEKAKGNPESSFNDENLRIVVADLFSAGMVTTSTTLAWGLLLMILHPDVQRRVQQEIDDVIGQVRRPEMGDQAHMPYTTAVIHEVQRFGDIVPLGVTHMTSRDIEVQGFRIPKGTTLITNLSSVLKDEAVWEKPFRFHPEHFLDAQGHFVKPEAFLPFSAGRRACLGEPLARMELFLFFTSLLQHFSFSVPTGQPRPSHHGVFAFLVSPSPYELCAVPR
# Assay protocol: CYP inhibition assay in human liver microsomes
# Format: in vitro ADME
pIC50: −log10 of the molar value.
Test readout: pIC50

Just so you know, measured pIC50 for CC(C)(c1ccc(-c2ccc3oc(-c4ccnc(P(C)(C)=O)n4)c(N)c3c2)cc1)c1cc(Cl)c(OCCCl)c(C#N)c1 came out at < 5.00

----------
# Tgt: CYP3A4 (testosterone/midazolam) (Homo sapiens)
# Construct: co-incubated with human liver microsomes; from tissue; host or cells: human liver microsomes
# Sequence (P08684 whole entry): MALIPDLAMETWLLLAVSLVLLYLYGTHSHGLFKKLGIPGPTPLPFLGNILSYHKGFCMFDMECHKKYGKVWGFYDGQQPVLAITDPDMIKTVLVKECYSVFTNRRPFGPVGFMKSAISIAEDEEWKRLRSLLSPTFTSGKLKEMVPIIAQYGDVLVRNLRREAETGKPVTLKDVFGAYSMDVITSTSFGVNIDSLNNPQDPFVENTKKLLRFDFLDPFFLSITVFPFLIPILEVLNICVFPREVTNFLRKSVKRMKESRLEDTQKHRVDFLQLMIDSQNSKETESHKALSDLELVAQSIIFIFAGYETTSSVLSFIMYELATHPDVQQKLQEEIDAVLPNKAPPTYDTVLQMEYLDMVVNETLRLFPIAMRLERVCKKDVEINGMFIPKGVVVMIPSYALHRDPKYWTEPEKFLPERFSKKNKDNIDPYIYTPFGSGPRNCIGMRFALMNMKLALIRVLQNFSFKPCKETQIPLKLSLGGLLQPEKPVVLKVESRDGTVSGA
# Assay protocol: CYP inhibition assay in human liver microsomes
# Assay type: in vitro ADME
# Run parameters: probe substrate midazolam, read-out: CYPs 3A4 (Midazolam) (IC50)
pIC50: −log10 of the molar value.
Kindly state pIC50 for each of the entries shown.

Just so you know, measured pIC50 for CC(C)(c1ccc(-c2cnc(OCc3ccnc(N4CC(S(N)(=O)=O)C4)n3)cn2)cc1)c1cc(Cl)c(OCCCl)c(C#N)c1 came out at < 5.00

Just so you know, measured pIC50 for CC(C)(c1ccc(-c2cnc(OCc3ccnc(N4CC5(C4)CS(=N)(=O)C5)n3)cn2)cc1)c1cc(Cl)c(OCCCl)c(C#N)c1 came out at < 5.00

Just so you know, measured pIC50 for CC(C)(c1ccc(-c2ccc(OCc3ccnc(N4CC5(CC(P(C)(C)=O)C5)C4)n3)cc2)cc1)c1cc(Cl)c(OCCCl)c(C#N)c1 came out at < 5.00

Just so you know, measured pIC50 for CC(C)(c1ccc(-c2cnc(OCc3ccnc(N4CC(S(=N)(=O)C5CC5)C4)n3)cn2)cc1)c1cc(Cl)c(OCCCl)c(C#N)c1 (single isomer, unassigned) [Compound 350A] came out at < 5.00

Just so you know, measured pIC50 for CC(C)(c1ccc(-c2ccc(OC3CCN(c4ccnc(P(C)(C)=O)n4)CC3)cc2)cc1)c1cc(Cl)c(OCCCl)c(C#N)c1 came out at < 5.00

Just so you know, measured pIC50 for CC(C)(c1ccc(-c2ncc(OCc3cnc(-c4cnc(P(C)(C)=O)nc4)cn3)cn2)cc1)c1cc(Cl)c(OCCCl)c(C#N)c1 came out at < 5.00

Just so you know, measured pIC50 for CC(C)(c1ccc(-c2ccc(OCc3ccnc(N4CCC(S(C)(=O)=O)CC4)n3)cc2)cc1)c1cc(Cl)c(OCCCl)c(C#N)c1 came out at < 5.00

Just so you know, measured pIC50 for CC(C)(c1ccc(-c2cnc(OCc3ccnc(N4CC5(CCS5(=N)=O)C4)n3)cn2)cc1)c1cc(Cl)c(OCCCl)c(C#N)c1 (single isomer, unassigned) [Compound 375A] came out at < 5.00

Just so you know, measured pIC50 for CC(C)(c1ccc(-c2ccc(OCc3ccc(-c4cnc(P(C)(C)=O)nc4)nc3)cc2)cc1)c1cc(Cl)c(OCCCl)c(C#N)c1 came out at < 5.00

Just so you know, measured pIC50 for CC(C)(c1ccc(-c2ccc(OC3CCN(c4ccnc(N=S5(=O)CCCC5)n4)CC3)cc2)cc1)c1cc(Cl)c(OCCCl)c(C#N)c1 came out at < 5.00

Just so you know, measured pIC50 for CC(C)(c1ccc(-c2ccc(OCc3ccnc(N4CC5(CCS(=O)(=O)CC5)C4)n3)cc2)cc1)c1cc(Cl)c(OCCCl)c(C#N)c1 came out at < 5.00

Just so you know, measured pIC50 for CC(C)(c1ccc(-c2ccc(OCc3ccnc(N4CC5(CCS(=N)(=O)CC5)C4)n3)cc2)cc1)c1cc(Cl)c(OCCCl)c(C#N)c1 came out at < 5.00
